- Test system: Pa16c cells
- Experimental details: Pa16c cell proliferation assay (resazurin)
- Type: cell-based
- Measurement parameters: Table 2, inhibition of cell proliferation
- Method: Pa16c cells are obtained from Dr. Channing Der, University of North Carolina at Chapel Hill. […] Plates are read on a Synergy2 or equivalent reader (Biotek, Winooski, VT) using an excitation of 540 nm and an emission of 600 nm. Data is analyzed using Prism software (Graphpad, San Diego, CA) to calculate IC50 values.
// reported IC50 for each item listed

Guide cases for IC50, answers given:
>  <Compound>
CNC(=O)c1cc(-c2cc(-c3cc(NC(=N)c4cc(C5CC5)cnn4)ccc3C)ccn2)ccn1 [Example 21]

>  <IC50>
1 to 10 µM

$$$$
>  <Compound>
CNC(=O)c1cc(-c2cc(-c3cc(NC(=O)c4cc(C5CC5)cnn4)ccc3C)cc(NCCO)n2)ccn1 [Example 27]

>  <IC50>
< 0.1 µM

$$$$
>  <Compound>
CNC(=O)c1cc(-c2cc(-c3cc(NC(=O)c4cc(C5CC5)cnn4)ccc3C)cc(N[C@H](C)CO)n2)ccn1 [Example 32]

>  <IC50>
0.1 to 0.5 µM

$$$$
>  <Compound>
CNC(=O)c1cc(-c2cc(-c3cc(NC(=O)c4cc(C5CC5)cnn4)ccc3C)nc(NCCO)n2)ccn1 [Example 8]

>  <IC50>
1 to 10 µM

$$$$
>  <Compound>
CNC(=O)c1cc(-c2cc(-c3cc(NC(=O)c4cncc(C(F)(F)F)c4)ccc3C)ccn2)ccn1 [Example 12]

>  <IC50>
1 to 10 µM

$$$$

Enquiry: Record request: IC50 value, item CNC(=O)c1cc(-c2cc(-c3cc(NC(=O)c4cc(C(F)(F)F)cnn4)ccc3C)nc(NCCO)n2)ccn1 [Example 19]
Return: 0.5 to 1 µM

Enquiry: Proceed to CNC(=O)c1cc(-c2cc(-c3cc(NC(=O)c4cnc(C(F)(F)F)nc4)ccc3C)cc(N[C@H](C)CO)n2)ccn1 [Example 45]
Return: 1 to 10 µM

Enquiry: Cool, now CNC(=O)c1cc(-c2cncc(-c3cc(NC(=O)c4cc(C(F)(F)F)cnn4)ccc3C)c2)ccn1 [Example 16]
Return: 1 to 10 µM

Enquiry: Would you mind doing CNC(=O)c1cc(-c2cncc(-c3cc(NC(=O)c4cc(C(C)(F)F)cnn4)ccc3C)c2)ccn1 [Example 30] as well?
Return: 1 to 10 µM

Enquiry: Request: CNC(=O)c1cc(-c2nc(NCCO)cc(-c3cc(NC(=O)c4cc(C(F)(F)F)cnn4)ccc3C)n2)ccn1 [Example 23]
Return: 1 to 10 µM

Enquiry: Then CNC(=O)c1cc(-c2cc(-c3cc(NC(=O)c4cc(C5CC5)cnn4)ccc3C)ccn2)ccn1 [Example 26] ?
Return: 0.1 to 0.5 µM

Enquiry: # iterate: CNC(=O)c1cc(-c2nc(NCCO)cc(-c3cc(NC(=O)c4cc(C5CC5)cnn4)ccc3C)n2)ccn1 [Example 22]
Return: 1 to 10 µM
